- assayNotes: M. tuberculosis growth inhibition, HTS (AID 1259417);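 note: bacteria grown with compound for 5 days at 37 °C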
- measurementSetup: M. tuberculosis growth inhibition; stronger effect = higher value; concentration not given here
Out of some 1,100 compounds screened, about 760 (69%) were called active. The set was probably picked from earlier hits. The list shows a part of the results.
I'd appreciate it if you could supply inhibition values for the items below.
One number for each entry, in %.

Please review the following examples before continuing.
compound | measuredAttribute | unitAnnotation | numericResult
CCn1c(NCc2c(O)ccc3ccccc23)nc2ccccc21 | inhibition | % | 89
CCOC(=O)c1ccc(NC(=O)CSc2nnc(-c3ccc(OC)cc3)o2)cc1 | inhibition | % | 56.7
COC(=O)CSc1nc(N)c2c3c(sc2n1)CCCC3 | inhibition | % | 75
O=C(CC12CC3CC(CC(C3)C1)C2)Nc1ccc(I)cc1F | inhibition | % | 24.5

// input: 7 compounds below; output: inhibition for each
1. CCOc1ccc(NC(=O)CSc2nnc(Cc3ccc(OC)cc3)o2)cc1
2. COc1ccc(Cc2nnc(SCC(=O)Nc3ccc(C(C)C)cc3)o2)cc1
3. CCCCCn1c(NCc2ccc(N(C)C)cc2)nc2ccccc21
4. Cc1ccc(NC(=O)c2cc3cc(Cl)cc(Cl)c3oc2=O)c(C)c1
5. CC(=NNc1nc(=O)[nH]nc1C)c1ccccc1O
6. CCC(C)NCCCOc1ccc(Cl)c2ccccc12 (stereo unspecified)
7. COc1ccc(-c2nnc(SCC(=O)Nc3ccc([N+](=O)[O-])cc3)o2)cc1

Result ::
2.07
9.66
-15.7
43.2
98.8
89.4
88.8

----------
- assayNotes: M. tuberculosis growth inhibition, HTS (AID 1259417);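 note: bacteria grown with compound for 5 days at 37 °C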
- measurementSetup: M. tuberculosis growth inhibition; stronger effect = higher value; concentration not given here
Hit rate of the full screen: of about 1,100 compounds, about 760 (69%) were called active. The set was probably picked from earlier hits. Some of the results follow.
Decision: inhibition >= 80% yields Criterion met, all other cases yield Criterion not met.

The following molecules have reported results that may help.
molecule | label
Cc1ccccc1C(=O)Nc1nnc(-c2ccco2)o1 | Criterion not met
COC(C)(C)C#CC(=O)c1cccc2ccccc12 | Criterion met
CCOC(=O)C(C)Sc1ncnc2c1nnn2Cc1ccc(F)cc1 (stereo not drawn) | Criterion not met
COC(=O)CSc1ncnc2c1cnn2-c1ccc(F)cc1 | Criterion met

Query :: Is inhibition at least 80%? Consider `CC(C)(C)c1ccc(-n2c(=O)[nH]c3c(C(N)=O)nc(CCc4ccccc4)nc32)cc1`
Result :: Criterion not met

Query :: Entry O=C(CCN1C(=O)C2C3C=CC(C4CC34)C2C1=O)Oc1cccc2cccnc12 (stereo not drawn) : is its inhibition no less than 80%?
Result :: Criterion met

Query :: hey, is inhibition for this one >= 80%? CC(C(=O)Oc1cccc2cccnc12)N1C(=O)C2C3C=CC(C4CC34)C2C1=O (stereo not drawn)
Result :: Criterion met

Query :: Could you tell me if the measured inhibition of `COc1ccc(Cn2c(=O)c3c(n4cnnc24)-c2ccccc2CC32CCCCC2)cc1` reaches 80% or more?
Result :: Criterion not met

Query :: Test whether the molecule `Cc1ccn2c(-c3csc(Nc4ccccn4)n3)c(C)nc2c1` records inhibition of 80% or higher.
Result :: Criterion met

Query :: Given `O=C(Nc1nnc(-c2cccs2)o1)c1cccc(C(F)(F)F)c1` , state whether its inhibition is at least 80%.
Result :: Criterion not met

Query :: Form field: inhibition at least 80%? Entry: `COc1ccc2[nH]cc(CCNC(=S)Nc3ccc(Nc4ccccc4)cc3)c2c1`
Result :: Criterion not met

Query :: Would you say `O=C1NN=C2C1=NC1(CCCCC1)Cc1ccccc12` shows inhibition at minimum 80%?
Result :: Criterion met

Query :: Would you say `O=C(Nc1nnc(-c2ccco2)o1)c1cccs1` shows inhibition at minimum 80%?
Result :: Criterion not met

Query :: # check: inhibition of `Cc1ccccc1Nc1nc(-c2ccccn2)cs1` is greater than or equal to 80%
Result :: Criterion met

Query :: Does `CCCCCCCCOC(=O)c1c(CSC(=N)N)n(C)c2cc(Br)c(OC(C)=O)cc12` have a reported inhibition of at least 80%?
Result :: Criterion not met

----------
- assayNotes: M. tuberculosis growth inhibition, HTS (AID 1259417);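 note: bacteria grown with compound for 5 days at 37 °C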
- measurementSetup: M. tuberculosis growth inhibition; stronger effect = higher value; concentration not given here
The whole screen tested about 1,100 compounds, of which about 760 (69%) were called active. The set was probably picked from earlier hits. Some of the results follow.
Provide the reported inhibition of each item.
One number for each entry, in %.

compound | unitAnnotation | inhibition
Cc1ccc(C)c(-c2cc(C(=O)Nc3nccs3)c3ccccc3n2)c1 | % | -26.2
Cc1ccc(NC(=O)CC2COc3ccccc3O2)cc1Cl (stereo not given) | % | -10.1
Cc1nc2cc(C(=O)OCC(=O)NC34CC5CC(CC(C5)C3)C4)ccc2n1-c1ccccc1 | % | -17.2
Cc1nc2ccc(C(=O)OCc3cccc(F)c3)cc2nc1C | % | 60.3
O=C(NCc1ccc2c(c1)OCO2)c1cnn2c1NC(c1cccs1)CC2C(F)(F)F (stereo not given) | % | 94.1
CC1CCN(CCNC(=S)Nc2ccc(F)cc2)CC1 | % | -24
CC1CCCN(c2ccc([N+](=O)[O-])s2)C1 (stereo not given) | % | 99.3
O=C(C1CCN(c2nnc(-n3cccc3)s2)CC1)N1CCc2ccccc2C1 | % | 84.1
O=C(CSc1nnc(Cc2ccccc2)o1)Nc1nccs1 | % | -3.79
COc1ccccc1N1C(=O)c2cccc3cc([N+](=O)[O-])cc(c23)C1=O | % | 95.8

Quick batch: inhibition for everything below.
1. Cc1ccc(NC(=O)C(C)NS(=O)(=O)c2ccc(Cl)cc2)cc1Cl (stereo not given)
2. COc1cccc(-c2nnc(NC(=O)C=Cc3cccs3)o2)c1
3. Cc1ccc(CSCC(=O)Nc2ccccc2)cc1
4. CCN(CC)c1ccc(NC(=S)NCCc2ccc(OC)c(OC)c2)cc1

Result ::
1: -8.36; 2: 4.98; 3: 35.4; 4: 100

Here are 8 compounds. What values of inhibition were reported for them?
1. CCOC(=O)CSc1nnc(-c2ccc([N+](=O)[O-])cc2)o1
2. C=CCn1c(=NC(=O)c2ccc([N+](=O)[O-])s2)sc2cc(S(N)(=O)=O)ccc21
3. N#Cc1c(SCC(N)=O)nsc1SCc1ccccc1Cl
4. Cc1ccccc1C(=O)Nc1nnc(-c2ccc(Cl)cc2)o1
5. S=C(NCc1ccc(Cl)cc1)N1CCN(CC=Cc2ccccc2)CC1
6. COC(=O)CSc1nc(-c2ccccc2)c2c(c1C#N)CCCC2
7. COC(=O)COc1ccc2cc(-c3ccc(OC)c(OC)c3)c(=O)oc2c1
8. CCOC(=O)COc1ccc2ccccc2c1C=C(C)[N+](=O)[O-]

Result ::
[95.6, 94.9, 61.7, 90.7, -11, -16.2, 45, 10.8]

Parameter requested: inhibition. Apply to each item below.
1. CCC(OC(C)=O)c1ccc(OC(C)=O)c(OC)c1 (stereo not given)
2. O=C1c2cccc3cccc(c23)C(=O)N1c1ccc2[nH]c(=O)[nH]c2c1
3. CCN(CC)C(=S)NC(=O)c1ccc(Cl)cc1
4. Cc1ccc([N+](=O)[O-])cc1NC(=O)CN(C(=O)c1ccccc1Cl)C1CCCCC1
5. O=C(Nc1nnc(-c2ccccc2Cl)o1)c1cccc(Oc2ccccc2)c1

Result ::
[90.6, 63.9, 0.451, 49.8, 93.2]

Each compound below has a reported value. Please supply its inhibition.
1. CCOC(=O)COc1ccc2cc(-c3ccc(OC)c(OC)c3)c(=O)oc2c1
2. Cc1nc2ccc(C(=O)OCc3nnc(-c4ccccc4)o3)cc2nc1C
3. COc1ccc(-c2nnc(SCC(=O)NCCc3ccccc3)o2)cc1

Result ::
1. 53.6
2. 0.442
3. 88.5

----------
- assayNotes: M. tuberculosis growth inhibition, HTS (AID 1259417);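 note: bacteria grown with compound for 5 days at 37 °C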
- measurementSetup: M. tuberculosis growth inhibition; stronger effect = higher value; concentration not given here
The whole screen tested about 1,100 compounds, of which about 760 (69%) were called active. So high a share suggests a set chosen from earlier hits. The list shows a part of the results.
Assign Satisfied to entries whose inhibition meets or exceeds 90%; assign Not satisfied to the rest.

Before answering, review these 3 worked examples.
smilesStructure | label
CCn1cc(C(=O)O)c(=O)c2cc(F)c(N3CCNCC3)cc21 | Satisfied
CCn1cc(C(=O)O)c(=O)c2cc(F)c(N3CCN(C)CC3)cc21 | Satisfied
O=C(COc1ccc(Cl)cc1)Nc1ccc(Cc2ccncc2)cc1 | Not satisfied

Query :: State whether the measured inhibition reaches 90%, counting equality as reaching it, for `N#Cc1ccc(-c2ccc(OCC(N)=O)cc2)cc1`
Result :: Not satisfied

----------
- assayNotes: M. tuberculosis growth inhibition, HTS (AID 1259417);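 note: bacteria grown with compound for 5 days at 37 °C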
- measurementSetup: M. tuberculosis growth inhibition; stronger effect = higher value; concentration not given here
The whole screen tested about 1,100 compounds, of which about 760 (69%) were called active. So high a share suggests a set chosen from earlier hits. The list shows a part of the results.
measuredAttribute: inhibition (%)
Answers are plain numbers, in %.

The cases that follow already have their inhibition on record.
molecule | unitAnnotation | inhibition
Cc1cc(-c2csc(Nc3ccc(S(N)(=O)=O)cc3)n2)ccc1F | % | 9.99
CCOC(=O)CSc1ncc(-c2cccc(Cl)c2)cn1 | % | 70.5
CCOC(=O)C(C)Sc1ncc(-c2ccc(Cl)cc2)cn1 (stereo unspecified) | % | 45.6
CCCOc1ccccc1-c1nc(SCC(=O)OCC)n[nH]1 | % | 37.9
O=C(NCCc1ccc(Cl)cc1)C1CCC(CNc2c(N3CCCCC3)c(=O)c2=O)CC1 (stereo unspecified) | % | 90

Query :: Fill blank: measured inhibition of the molecule CC1CC(C)CN(C(=O)c2ccc(CNc3c(N4CCCC4)c(=O)c3=O)cc2)C1 (stereo unspecified) is ____.
Result :: 90
